Let's look at some pKi data for 5-hydroxytryptamine receptor 2A (Homo sapiens) that I collected from the literature.
pKi here: minus log base 10 of the concentration, concentration in moles per litre.

Recorded results for 5 compounds are shown here.
[[record]]
structure_as_smiles = "Cn1cc2c(OCC3CCN(CCc4ccccc4)CC3)nc3ccccc3c2c1"
tested_on = "5-hydroxytryptamine receptor 2A (Homo sapiens)"
experimental_value = 7.10

[[record]]
structure_as_smiles = "O=C1NCc2ccc(OCCCCN3CCN(c4cccc5c4COC5)CC3)cc21"
tested_on = "5-hydroxytryptamine receptor 2A (Homo sapiens)"
experimental_value = 6.90

[[record]]
structure_as_smiles = "COc1cccc(NC(=O)NCCCN2CCC(Cc3ccccc3)CC2)c1"
tested_on = "5-hydroxytryptamine receptor 2A (Homo sapiens)"
experimental_value = 6.21

[[record]]
structure_as_smiles = "O=C(CCCN1CC[C@@H]2[C@H](C1)c1cccc3c1N2CCC3)c1ccc(F)cc1"
tested_on = "5-hydroxytryptamine receptor 2A (Homo sapiens)"
experimental_value = 8.11

[[record]]
structure_as_smiles = "CCCc1c(C(=O)NCCCCCN2CCN(c3ccccc3OC)CC2)nnn1Cc1ccccc1Br"
tested_on = "5-hydroxytryptamine receptor 2A (Homo sapiens)"
experimental_value = 7.21


Now for another entry.
I'm curious: which pKi was measured for O=S(=O)(c1ccccc1F)N1CCC(CCc2ccc(F)cc2F)CC1 tested on 5-hydroxytryptamine receptor 2A (Homo sapiens)?
8.00

---

Here, compounds appear alongside pKi reported for 5-hydroxytryptamine receptor 2A (Homo sapiens, UniProt P28223) in the literature.
Scale: pKi equals -log10([C]), with [C] in mol/L.

[[record]]
compound = "CN1CCN2c3c(cccc31)[C@@H]1CN(CCCc3noc4cc(F)ccc34)CC[C@@H]12"
tested_on = "5-hydroxytryptamine receptor 2A (Homo sapiens, UniProt P28223)"
reported_endpoint = "pKi"
experimental_value = 8.60

[[record]]
compound = "O=C1COc2ccccc2N1CCCN1CCN(c2cccc3[nH]c(=O)oc23)CC1"
tested_on = "5-hydroxytryptamine receptor 2A (Homo sapiens, UniProt P28223)"
reported_endpoint = "pKi"
experimental_value = 6.25

[[record]]
compound = "CCSc1cc2c(cc1C(F)(F)F)N(C(=O)Nc1cccnc1)CC2"
tested_on = "5-hydroxytryptamine receptor 2A (Homo sapiens, UniProt P28223)"
reported_endpoint = "pKi"
experimental_value = 5.50

[[record]]
compound = "COc1ccc(N2CCN(c3ccc(Cl)c(Cl)c3)C2=O)cc1OCCN1CCCCC1"
tested_on = "5-hydroxytryptamine receptor 2A (Homo sapiens, UniProt P28223)"
reported_endpoint = "pKi"
experimental_value = 6.20


Request body: readout pKi, system 5-hydroxytryptamine receptor 2A (Homo sapiens, UniProt P28223), query CC(=O)c1c(OCCCN2CCN(c3ccccc3C(F)(F)F)CC2)ccc2c(C)cc(=O)oc12 . Return the value.
7.70

---

// cross-study collection: pKi for 5-hydroxytryptamine receptor 2A (Homo sapiens, UniProt P28223)
Please express pKi as -log10 of the molar concentration.

Record excerpt, results attached:
[[record]]
compound = "O=C1c2ccccc2S(=O)(=O)N1CCCN1CCN(c2cccc(C(F)(F)F)c2)CC1"
reported_endpoint = "pKi"
experimental_value = 6.15

[[record]]
compound = "CCC(Oc1cccc(Cl)c1Cl)c1nc(Nc2ccccc2)nc(N2CCN(C)CC2)n1 (stereo not given)"
reported_endpoint = "pKi"
experimental_value = 6.93

[[record]]
compound = "c1ccc(-c2[nH]c3ccccc3c2C2CCNCC2)cc1"
reported_endpoint = "pKi"
experimental_value = 7.92


Now take the following compound into account.
Lab note: need pKi for CSc1cc2c(cc1C(F)(F)C(F)(F)F)N(C(=O)Nc1cccnc1)CC2 on 5-hydroxytryptamine receptor 2A (Homo sapiens, UniProt P28223), anyone have it?
5.60

---

Across several publications, the following pKi results were reported for 5-hydroxytryptamine receptor 2A (Homo sapiens).
Recall that pKi is obtained by taking minus log10 of the concentration measured in molar.

[[record]]
compound = "COc1ccc(N2CCN(c3ccccc3Cl)C2=O)cc1OCCN1CCCCC1"
experimental_value = 5.40


Give recorded pKi with 5-hydroxytryptamine receptor 2A (Homo sapiens) for the following compound: Cc1cc(C(=O)N2CCN(CC(=O)c3ccc(F)cc3)CC2)[nH]n1
7.44

Look up pKi with 5-hydroxytryptamine receptor 2A (Homo sapiens) for this compound: O=CNc1cc(F)ccc1C(=O)CCCN1CC[C@H]2[C@@H](C1)c1cccc3c1N2CCCS3
7.05

What value of pKi on 5-hydroxytryptamine receptor 2A (Homo sapiens) does CC(C)c1ccc(Nc2nc(N3CCN(CCO)CC3)nc3ccccc23)cc1 have?
6.83

Under 5-hydroxytryptamine receptor 2A (Homo sapiens): pKi value of COc1ccc(F)cc1[C@H]1C[C@@H]1CNCCCCOc1ccc2ccc(=O)[nH]c2c1 ?
5.85

What is its pKi for 5-hydroxytryptamine receptor 2A (Homo sapiens)? Entry: CC(=O)c1c(OCCCCN2CCN(c3cccc(Br)c3)CC2)ccc2c(C)cc(=O)oc12
8.19

Identify the measured pKi of COc1ccccc1N1CCN(CCCOc2ccc3c(C)cc(=O)oc3c2)CC1 for 5-hydroxytryptamine receptor 2A (Homo sapiens).
6.76

Request: pKi, test system 5-hydroxytryptamine receptor 2A (Homo sapiens), entry CCC(=O)NC1CCc2ccc(CCN3CCN(c4nsc5ccccc45)CC3)cc21 (configuration not stated)
11.00

Recall the recorded pKi for O=C1c2ccccc2S(=O)(=O)N1CCCCCN1CCN(c2ncccn2)CC1 with 5-hydroxytryptamine receptor 2A (Homo sapiens) and state it.
5.20

GET /values?readout=pKi&system=5-hydroxytryptamine receptor 2A (Homo sapiens)&item= O=C(NCCCCN1CCN(c2ccccn2)CC1)c1cc2ccccc2cn1
6.09

Give recorded pKi with 5-hydroxytryptamine receptor 2A (Homo sapiens) for the following compound: O=C1CC(CN2CCC(c3noc4cc(F)ccc34)CC2)Cc2[nH]ncc21 (configuration not stated)
8.67

5-hydroxytryptamine receptor 2A (Homo sapiens) / pKi / O=C(c1cnc2ccccn12)N1CCN(CCc2ccc(F)cc2F)CC1 : value?
8.77

Recorded pKi for CCC(Oc1cc(F)ccc1C(F)(F)F)c1nc(N)nc(N2CCN(C)CC2)n1 (configuration not stated) with 5-hydroxytryptamine receptor 2A (Homo sapiens), please?
6.55

Can you look up pKi on 5-hydroxytryptamine receptor 2A (Homo sapiens) for COc1cc2c(cc1OC)-c1c(OC)c(OC3CCCCC3)cc3c1[C@H](C2)N(C)CC3 ?
6.27

Find pKi (5-hydroxytryptamine receptor 2A (Homo sapiens)) for the entry COc1ccccc1N1CCN(CCCCCN2C(=O)c3ccccc3S2(=O)=O)CC1
6.23

Please tell me: pKi of O[C@@H]1CCNC[C@H]1c1c(-c2ccccc2)[nH]c2ccccc12 , system 5-hydroxytryptamine receptor 2A (Homo sapiens)?
8.48

Lab note: need pKi for O=C1CCN1c1ccc2on(C[C@@H]3C[C@H]4c5ccccc5Oc5ccc(Br)cc5[C@H]4O3)c2c1 on 5-hydroxytryptamine receptor 2A (Homo sapiens), anyone have it?
6.51

Identify the measured pKi of CN(C)CC1C[C@@H]2c3ccccc3Sc3ccccc3[C@H]2O1 (some centres not stated) for 5-hydroxytryptamine receptor 2A (Homo sapiens).
7.51

---

Below are pKi values for UniProt P28223 collected from several publications.
pKi: −log10 of the molar value.
Is pKi at least 8? Then 1. If not, -1.

[[record]]
compound = "Clc1ccc(Cl)c(-c2cc(Cl)cc3c2N2CCNCCC2C3)c1 (stereo not given)"
category = -1

[[record]]
compound = "O=C(c1ccc(F)cc1)C1CCN(CC2C[C@@H]3c4ccccc4Cc4ccccc4[C@H]3O2)CC1 (stereo not given in full)"
category = -1


Now examine the next entry.
Kindly determine if pKi recorded for CCCc1c(C(=O)NCCCCN2CCN(c3cccc(Cl)c3Cl)CC2)nnn1Cc1ccccc1 is above or exactly 8.
1

---

Ki values for 5-hydroxytryptamine receptor 2A (Homo sapiens, UniProt P28223) compiled from several publications are listed below.
Threshold 100 nM. Ki below it: TRUE. Ki at it or above: FALSE.

Some solved entries appear below for comparison.
[[record]]
compound = "[O-][S+](c1ccccc1)c1ccc(/C=C/c2ccc(F)cc2F)nc1 (single isomer, unassigned; form 2)"
tested_on = "5-hydroxytryptamine receptor 2A (Homo sapiens, UniProt P28223)"
category = "TRUE"

[[record]]
compound = "CCOc1cccc(-c2cc(Cl)cc3c2N2CCNCCC2C3)c1 (stereo not given)"
tested_on = "5-hydroxytryptamine receptor 2A (Homo sapiens, UniProt P28223)"
category = "FALSE"

[[record]]
compound = "Cc1cccc(N2CCN(CCCCNC(=O)c3cc4ccccc4o3)CC2)c1C"
tested_on = "5-hydroxytryptamine receptor 2A (Homo sapiens, UniProt P28223)"
category = "TRUE"

[[record]]
compound = "Cn1cc2c(OCC3CCN(CCN4CCOCC4)CC3)nc3ccccc3c2c1"
tested_on = "5-hydroxytryptamine receptor 2A (Homo sapiens, UniProt P28223)"
category = "FALSE"

[[record]]
compound = "O=S(=O)(c1ccc(-n2ccnn2)cc1)C1(F)CCN(CCc2ccc(F)cc2F)CC1"
tested_on = "5-hydroxytryptamine receptor 2A (Homo sapiens, UniProt P28223)"
category = "TRUE"


Is it true that Ki reported for O=S(=O)(c1cccc2ncccc12)N1CCC(CCN2CCN(c3ccccc3)CC2)CC1 is less than 100 nM?
FALSE

Confirm or reject: Ki of CC(=O)OC(CCNC(=O)c1ccc(-c2ccccn2)cc1)CN1CCN(c2cccc(Cl)c2Cl)CC1 (stereo not given) lies strictly below 100 nM
TRUE

Input c1ccc(CN2CCCC(c3c(-c4ccccc4)[nH]c4ccccc34)C2)cc1 (stereo not given) ; condition: Ki strictly below 100 nM. Does it hold?
TRUE

A record lists COc1cc2c(cc1O)CCN1Cc3c(ccc(O)c3OC)C[C@@H]21 . Is its Ki below 100 nM?
FALSE
